Literature survey of pIC50 (system: PLK4 (Homo sapiens)).
pIC50: −log10 of the molar value.

{"columns": ["smiles str", "pIC50"],
 "data": [
  ["COc1c(Nc2cc(C)[nH]n2)nc(Sc2ccc(S(=O)(=O)Cc3cccc([N+](=O)[O-])c3F)cc2F)nc1N1CCN(CCN(C)C)CC1", "> 6.00"],
  ["CCOc1c(Nc2cc(C)[nH]n2)nc(Sc2ccc(NC(=O)C3CCCC3)cc2)nc1N1CCN(C2CCN(C)CC2)CC1", "6.00 to 7.00"],
  ["COc1c(Nc2cc(C)[nH]n2)nc(Sc2ccc(S(C)(=O)=O)cc2F)nc1N1CCN(CCN(C)C)CC1", "> 7.00"],
  ["O=C(Nc1cccc(NC(=O)c2ccn(-c3ccc(F)cc3)n2)c1)c1cccc(-c2ccn[nH]2)n1", "≤ 5.00"]
]}

----------
pIC50: −log10 of the molar value.
Literature survey of pIC50 (system: PLK4 (Homo sapiens, UniProt O00444)).
Sequence (O00444 whole entry): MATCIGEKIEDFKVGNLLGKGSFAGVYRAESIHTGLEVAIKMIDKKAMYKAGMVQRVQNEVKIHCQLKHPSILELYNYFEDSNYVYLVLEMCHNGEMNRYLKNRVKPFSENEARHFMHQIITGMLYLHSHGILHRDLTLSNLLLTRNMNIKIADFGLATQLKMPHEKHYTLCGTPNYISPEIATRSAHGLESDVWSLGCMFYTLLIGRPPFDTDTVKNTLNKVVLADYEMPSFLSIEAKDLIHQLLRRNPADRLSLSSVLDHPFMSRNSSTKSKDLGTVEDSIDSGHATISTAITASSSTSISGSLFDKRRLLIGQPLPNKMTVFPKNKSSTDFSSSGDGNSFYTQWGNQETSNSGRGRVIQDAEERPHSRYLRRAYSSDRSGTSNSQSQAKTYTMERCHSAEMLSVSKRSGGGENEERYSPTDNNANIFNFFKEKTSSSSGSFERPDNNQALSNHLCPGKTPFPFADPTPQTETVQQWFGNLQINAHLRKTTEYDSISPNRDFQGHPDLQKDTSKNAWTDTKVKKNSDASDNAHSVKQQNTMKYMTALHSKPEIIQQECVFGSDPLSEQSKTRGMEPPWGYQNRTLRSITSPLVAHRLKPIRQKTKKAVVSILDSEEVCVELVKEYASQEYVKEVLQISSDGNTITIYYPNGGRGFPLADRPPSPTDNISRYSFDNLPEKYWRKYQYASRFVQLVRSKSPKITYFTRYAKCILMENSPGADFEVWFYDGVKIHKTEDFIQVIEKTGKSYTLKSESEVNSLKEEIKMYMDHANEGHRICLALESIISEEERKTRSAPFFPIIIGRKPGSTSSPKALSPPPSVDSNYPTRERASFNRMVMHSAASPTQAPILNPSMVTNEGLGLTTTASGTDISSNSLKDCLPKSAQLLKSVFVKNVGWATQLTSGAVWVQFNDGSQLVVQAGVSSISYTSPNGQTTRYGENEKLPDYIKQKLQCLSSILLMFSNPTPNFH

{"columns": ["smiles str", "system tested", "pIC50"],
 "data": [
  ["COc1c(Nc2cc(C)[nH]n2)nc(Sc2ccc(S(=O)(=O)C(C)(C)c3cccc([N+](=O)[O-])c3F)cc2F)nc1N1CCC(C(=O)N(C)C)CC1", "PLK4 (Homo sapiens, UniProt O00444)", "> 7.00"],
  ["COc1c(Nc2cc(C)[nH]n2)nc(Sc2ccc(S(=O)(=O)Cc3c(F)ccc(F)c3F)cc2F)nc1N1CCN(CCN(C)C)CC1", "PLK4 (Homo sapiens, UniProt O00444)", "> 7.00"],
  ["COc1c(Nc2cc(C)[nH]n2)nc(Sc2ccc(S(=O)(=O)Cc3ccccc3)cc2)nc1N1CC2CCC(C1)O2", "PLK4 (Homo sapiens, UniProt O00444)", "> 6.00"],
  ["COc1c(Nc2cc(C)[nH]n2)nc(Sc2ccc(NC(C)=O)cc2)nc1N1CCN(CC(=O)N(C)C)CC1", "PLK4 (Homo sapiens, UniProt O00444)", "> 6.00"],
  ["COc1cc2nccc(Oc3ccc(NC(=O)c4cc(S(C)(=O)=O)n(-c5ccc(F)cc5)n4)c(F)c3)c2cc1OC", "PLK4 (Homo sapiens, UniProt O00444)", "5.00 to 6.00"],
  ["CC(=O)Nc1ccc(Sc2nc(Nc3cc(C)[nH]n3)c3c(n2)C2(CC3)CCN(CCN(C)C)CC2)cc1", "PLK4 (Homo sapiens, UniProt O00444)", "> 7.00"],
  ["COc1c(Nc2cc(C)[nH]n2)nc(Sc2ccc(NC(C)=O)cc2)nc1N1CCN(CCN2CCNCC2)CC1", "PLK4 (Homo sapiens, UniProt O00444)", "> 7.00"],
  ["COc1c(Nc2cc(C)[nH]n2)nc(Sc2ccc(S(=O)(=O)Cc3ccccc3)cc2)nc1N1CCCCC1", "PLK4 (Homo sapiens, UniProt O00444)", "> 7.00"],
  ["COc1c(Nc2cc(C)[nH]n2)nc(Sc2ccc(NC(C)=O)cc2)nc1N1CC2CCC(C1)N2CCN1CCN(C)CC1", "PLK4 (Homo sapiens, UniProt O00444)", "> 7.00"],
  ["COc1cccc(CS(=O)(=O)c2ccc(Sc3nc(Nc4cc(C)[nH]n4)c(OC)c(N4CCN(CCN(C)C)CC4)n3)cc2)c1", "PLK4 (Homo sapiens, UniProt O00444)", "> 7.00"],
  ["CCS(=O)(=O)c1ccc(Sc2nc(Nc3cc(C)[nH]n3)c(OC)c(N3CCC(CCN4C5CCCC4CCC5)CC3)n2)cc1", "PLK4 (Homo sapiens, UniProt O00444)", "> 7.00"],
  ["COc1c(Nc2cc(C)[nH]n2)nc(Sc2ccc(NC(C)=O)cc2)nc1N1CCN(CCN)CC1", "PLK4 (Homo sapiens, UniProt O00444)", "> 6.00"],
  ["COc1c(Nc2cc(C)[nH]n2)nc(Sc2ccc(S(=O)(=O)Cc3cccc(F)c3)cc2)nc1N1CCN(CCN(C)C)CC1", "PLK4 (Homo sapiens, UniProt O00444)", "> 7.00"],
  ["CNc1ccc(Sc2nc(Nc3cc(C)[nH]n3)c(C)c(N3CCCCC3)n2)cc1", "PLK4 (Homo sapiens, UniProt O00444)", "> 7.00"],
  ["COc1c(Nc2cc(C)[nH]n2)nc(Sc2ccc(NC(C)=O)cc2)nc1N1CCN(CCN2CCN(C)CC2)CC1", "PLK4 (Homo sapiens, UniProt O00444)", "> 7.00"],
  ["COc1c(Nc2cc(C)[nH]n2)nc(Sc2ccc(S(=O)(=O)Cc3cccc([N+](=O)[O-])c3)cc2)nc1N1CCOC[C@@H]1CO", "PLK4 (Homo sapiens, UniProt O00444)", "> 6.00"]
]}

----------
Literature survey of IC50 (system: PLK4 (Homo sapiens)).
assay endpoint: IC50

{"columns": ["compound", "system tested", "assay endpoint", "value"],
 "data": [
  ["COc1c(Nc2cc(C)[nH]n2)nc(Sc2ccc(S(=O)(=O)C(F)c3cccc(C#N)c3F)cc2F)nc1N1CCOCC1 (centres unmarked)", "PLK4 (Homo sapiens)", "IC50", "< 1 µM"],
  ["COc1c(Nc2cc(C)[nH]n2)nc(Sc2ccc(NC(C)=O)cc2)nc1N1CCN(C(=N)N)CC1", "PLK4 (Homo sapiens)", "IC50", "< 0.1 µM"],
  ["CCc1cc(Nc2nc(SC)nc(N3CCN(CCN(C)C)CC3)c2C)n[nH]1", "PLK4 (Homo sapiens)", "IC50", "< 1 µM"],
  ["COc1c(Nc2cc(C)[nH]n2)nc(Sc2ccc(S(=O)(=O)C3(c4cccc([N+](=O)[O-])c4F)CC3)cc2F)nc1N1CCC(NC(C)=O)CC1", "PLK4 (Homo sapiens)", "IC50", "< 0.1 µM"],
  ["CSc1c(Nc2cc(C)[nH]n2)nc(Sc2ccc(NC(=O)C3CC3)cc2)nc1N1CCN(C)CC1", "PLK4 (Homo sapiens)", "IC50", "0.1 to 1 µM"],
  ["COc1c(Nc2cc(C)[nH]n2)nc(Sc2ccc(S(=O)(=O)Cc3ccccc3)cc2)nc1N1CCN(CCN(C)c2ccccc2)CC1", "PLK4 (Homo sapiens)", "IC50", "< 1 µM"],
  ["COc1c(Nc2cc(C)[nH]n2)nc(Sc2ccc(NC(C)=O)cc2)nc1NC1CCNCC1", "PLK4 (Homo sapiens)", "IC50", "< 0.1 µM"],
  ["COc1c(Nc2cc(C)[nH]n2)nc(Sc2ccc(NC(C)=O)cc2)nc1N1CCN(C(C)C)CC1", "PLK4 (Homo sapiens)", "IC50", "< 1 µM"],
  ["COc1c(Nc2cc(C)[nH]n2)nc(Sc2ccc(S(=O)(=O)Cc3ccccc3)cc2)nc1N1CCN(CCN(C)C)CC1", "PLK4 (Homo sapiens)", "IC50", "< 0.1 µM"],
  ["Cc1cc(Nc2nc(Sc3ccc(NC(=O)C4CC4)cc3)nc(N3CCN(C)CC3)c2C)n[nH]1", "PLK4 (Homo sapiens)", "IC50", "< 0.1 µM"],
  ["CCN(C)c1nc(Sc2ccc(NC(C)=O)cc2)nc(Nc2cc(C)[nH]n2)c1C", "PLK4 (Homo sapiens)", "IC50", "< 1 µM"],
  ["COc1c(Nc2cc(C)[nH]n2)nc(Sc2ccc(S(C)(=O)=O)cc2Cl)nc1N1CCC(CCN(C)C)CC1", "PLK4 (Homo sapiens)", "IC50", "< 0.1 µM"],
  ["COc1c(Nc2cc(C)[nH]n2)nc(Sc2ccc(NC(C)=O)cc2)nc1N1CCN(CCN2CCCC2)CC1", "PLK4 (Homo sapiens)", "IC50", "< 1 µM"],
  ["COc1c(Nc2cc(C)[nH]n2)nc(Sc2ccc(NC(C)=O)cc2)nc1N1CCOC[C@@H]1C", "PLK4 (Homo sapiens)", "IC50", "< 0.1 µM"],
  ["CC(=O)Nc1nc(C)c(-c2ccnc(Nc3cc(NC(=O)c4ccn(-c5ccc(F)cc5)n4)ccc3C)n2)s1", "PLK4 (Homo sapiens)", "IC50", "< 0.5 µM"],
  ["CCN(CC)c1nc(Sc2ccc(S(=O)(=O)CC)cc2)nc(Nc2cc(C)[nH]n2)c1OC", "PLK4 (Homo sapiens)", "IC50", "< 0.1 µM"],
  ["COc1c(Nc2cc(C)[nH]n2)nc(Sc2ccc(S(=O)(=O)Cc3ccccc3)cc2)nc1N1CCN(C2CCNCC2)CC1", "PLK4 (Homo sapiens)", "IC50", "< 1 µM"]
]}
